- method: chemical genetic growth profiling, strain panel (AID 1159580);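 note: tested at 20 µM; growth read once vehicle control cultures reached saturation at 30 °C; 1 = growth at the plate median or of vehicle wells; lower values mean less growth of the strain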
- condition-info: S. cerevisiae deletion strains, growth OD, locus YJL115W, strain asf1, hits give low values
Out of some 5,500 compounds screened, about 2,000 (36%) were called active. Inconclusive results (about 18%) are left out. The list shows a part of the results.
measured-attribute: normalized growth
Answer using only a numeral; do not append any unit.

// normalized growth value for `Cc1c(S(=O)(=O)O)oc2c1C(=O)C(=O)c1c-2ccc2c1CCCC2(C)C` : 0.952

// normalized growth value for `Cc1coc2c1C(=O)C(=O)c1c-2ccc2c1CCCC2(C)C` : 0.953

// normalized growth value for `O=C1NC(=O)C(=O)C(=O)N1` : 0.978

// normalized growth value for Nc1ccn(C2O[C@H](CO)[C@@H](O)[C@@H]2O)c(=O)n1 (some centres undefined) : 0.978

// normalized growth value for COc1cc2c(cc1OC)C1Cc3ccc(OC)c(OC)c3CN1CC2 (centres undefined) : 0.967

// normalized growth value for CO/N=C(\C(=O)NC1C(=O)N2C(C(=O)OC(C)OC(C)=O)=C(COC(N)=O)CSC12)c1ccco1 (centres undefined) : 0.996

// normalized growth value for `C[C@H]1COC2=C1C(=O)C(=O)c1c2ccc2c1CCCC2(C)C` : 0.886

// normalized growth value for `CO/N=C(\C(=O)N[C@@H]1C(=O)N2C(C(=O)O)=C(COC(C)=O)CS[C@H]12)c1csc(N)n1` : 0.968

// normalized growth value for `CCOC(=O)c1ccc(O)cc1` : 1.03

* * *

- method: chemical genetic growth profiling, strain panel (AID 1159580);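 note: tested at 20 µM; growth read once vehicle control cultures reached saturation at 30 °C; 1 = growth at the plate median or of vehicle wells; lower values mean less growth of the strain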
- condition-info: S. cerevisiae deletion strains, growth OD, locus YBR279W, strain paf1
In all, about 5,500 compounds went through this assay and about 2,000 (36%) were called active. Roughly 18% stayed inconclusive and do not appear here. Cut-off read from the data, not from the text of the source: active = normalized growth mostly below about 0.91 (no sharp cut-off); inconclusive = no clear call, values can overlap the other calls; inactive = mostly above about 0.92. This is one part of the list.
Classes to choose from: T (active), F (inactive)

# outcome recorded in this test, key = `CO/N=C(\C(=O)N[C@@H]1C(=O)N2C(C(=O)O)=C(COC(C)=O)CS[C@H]12)c1csc(N)n1` F

# outcome recorded in this test, key = `CCOC(=O)c1ccc(O)cc1` F

# outcome recorded in this test, key = CO/N=C(\C(=O)NC1C(=O)N2C(C(=O)OC(C)OC(C)=O)=C(COC(N)=O)CSC12)c1ccco1 (stereo unspecified) F

# outcome recorded in this test, key = `O=C1NC(=O)C(=O)C(=O)N1` F

# outcome recorded in this test, key = `CCOC(=O)Nc1nc2ccccc2[nH]1` F

# outcome recorded in this test, key = `Cc1ccc(Cl)c(Nc2ccccc2C(=O)O)c1Cl` T

* * *

- method: chemical genetic growth profiling, strain panel (AID 1159580);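 note: tested at 20 µM; growth read once vehicle control cultures reached saturation at 30 °C; 1 = growth at the plate median or of vehicle wells; lower values mean less growth of the strain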
- condition-info: S. cerevisiae deletion strains, growth OD, locus YEL003W, strain gim4, hits give low values
The whole screen tested about 5,500 compounds, of which about 2,000 (36%) were called active. About 18% were inconclusive and are not listed. The list shows a part of the results.
Would you kindly list normalized growth for each of these compounds?
Answer using only a numeral; do not append any unit.

// normalized growth value for NC(CO)C(=O)NNCc1ccc(O)c(O)c1O (stereo not drawn) : 0.981

// normalized growth value for `Cc1cc(NC(=O)C2=C(O)c3ccccc3S(=O)(=O)N2C)no1` : 0.959

// normalized growth value for `COc1cc2occ(-c3ccccc3)c(=O)c2c(OC)c1C` : 0.978
